# Activity (%) Day 3 per entry
- SUBJECT_OF_TEST: US Standard Human Thrombin (Homo sapiens, UniProt P00734)
- Construct: US Standard Human Thrombin; purchased NIH, Bethesda, Md., USA
- RUN_DESCRIPTION: Change in the antithrombin activity of aqueous solutions of tripeptide-aldehyde sulfates on storage
- Assay type: physicochemical
- COND: percentage of initial activity; aqueous solution 10 mg/ml, pH = 6.0, stored at 40° C.; Day 3
ATTRIBUTE_MEASURED: Activity (%) Day 3

[[record]]
compound = "CC(C)CN[C@H](Cc1ccccc1)C(=O)N1CCC[C@H]1C(=O)N[C@H](C=O)CCCNC(=N)N.O=S(=O)(O)O"
output_unit = "%"
measured_number = 80

[[record]]
compound = "CCN[C@H](Cc1ccccc1)C(=O)N1CCC[C@H]1C(=O)N[C@H](C=O)CCCNC(=N)N.O=S(=O)(O)O"
output_unit = "%"
measured_number = 85

[[record]]
compound = "N=C(N)NCCC[C@@H](C=O)NC(=O)[C@@H]1CCCN1C(=O)[C@H](N)Cc1ccccc1.O=S(=O)(O)O [reference compound]"
output_unit = "%"
measured_number = 40


meta.source: patent US4703036A
